System: A549/ATCC NSCLC
measurement-description: NCI-60 one-dose screen, 48 h (100 = growth as untreated, 0 = no growth, -100 = all killed)
conditions: 10 µM unless noted
This is part of a sample that, as a whole, favours compounds with a hit. Of some 83,000 tested, about 20% had one in any assay.
Output fulfilled for records whose growth is lower than 20%, not fulfilled for records at or above 20%.

compound	study-system	qualitative-label
COC(=O)C(N)CSC(c1ccccc1)(c1ccccc1)c1ccccc1 (stereo not given)	A549/ATCC NSCLC	not fulfilled
O=S(=O)(NCCNc1cc(-c2cn(-c3ccccc3)nc2-c2cccc(O)c2)ccn1)c1ccc(F)cc1	A549/ATCC NSCLC	not fulfilled
N=c1ccc2nc3c(cc(N)c4ccccc43)oc-2c1	A549/ATCC NSCLC	fulfilled
O=C(O[C@@H]1Cc2c(O)cc(O)cc2O[C@@H]1c1cc(O)c(O)c(O)c1)c1cc(O)c2c(c1)OCO2	A549/ATCC NSCLC	not fulfilled
COc1cnc2c(c1)C(=O)c1c-2n(CCCN2CCN(CCO)CC2)c(=O)c2cc([N+](=O)[O-])ccc12	A549/ATCC NSCLC	fulfilled
Cc1ccc(-c2ccc(Nc3ccccc3)nn2)cc1S(N)(=O)=O	A549/ATCC NSCLC	not fulfilled
Nc1ccc(Cl)cn1	A549/ATCC NSCLC	not fulfilled
COC(=O)[C@]12CC[C@@H](C)[C@H](C)[C@@H]1C1=CC[C@@H]3[C@@]4(C)C[C@@H](O)[C@H](O)[C@@](C)(CO)C4=CC[C@@]3(C)[C@]1(C)CC2	A549/ATCC NSCLC	fulfilled
COc1cc2c(cc1-c1c(C)noc1C)ncc1nc(C3CCCCC3)n([C@@H](C)COC(F)F)c12	A549/ATCC NSCLC	not fulfilled
COc1cc(-c2cc3ncccc3c3[nH]c(=O)c4cccnc4c23)cc(OC)c1OC	A549/ATCC NSCLC	not fulfilled
